biological target: MerTK (Homo sapiens, UniProt Q12866); construct: Seed HUVECs (10K cells/well) in EBM-2 complete media; assay: PAKT HTRF-HUVEC assay (pAkt Ser473 HTRF after anti-human MerTK-XL stimulation); conditions: HUVEC cells, 1 hour compound, stimulated with anti-human MerTK-XL 1 ug/mL for 10 minutes, read-out: inhibition of MerTK
Sequence (Q12866 21-999): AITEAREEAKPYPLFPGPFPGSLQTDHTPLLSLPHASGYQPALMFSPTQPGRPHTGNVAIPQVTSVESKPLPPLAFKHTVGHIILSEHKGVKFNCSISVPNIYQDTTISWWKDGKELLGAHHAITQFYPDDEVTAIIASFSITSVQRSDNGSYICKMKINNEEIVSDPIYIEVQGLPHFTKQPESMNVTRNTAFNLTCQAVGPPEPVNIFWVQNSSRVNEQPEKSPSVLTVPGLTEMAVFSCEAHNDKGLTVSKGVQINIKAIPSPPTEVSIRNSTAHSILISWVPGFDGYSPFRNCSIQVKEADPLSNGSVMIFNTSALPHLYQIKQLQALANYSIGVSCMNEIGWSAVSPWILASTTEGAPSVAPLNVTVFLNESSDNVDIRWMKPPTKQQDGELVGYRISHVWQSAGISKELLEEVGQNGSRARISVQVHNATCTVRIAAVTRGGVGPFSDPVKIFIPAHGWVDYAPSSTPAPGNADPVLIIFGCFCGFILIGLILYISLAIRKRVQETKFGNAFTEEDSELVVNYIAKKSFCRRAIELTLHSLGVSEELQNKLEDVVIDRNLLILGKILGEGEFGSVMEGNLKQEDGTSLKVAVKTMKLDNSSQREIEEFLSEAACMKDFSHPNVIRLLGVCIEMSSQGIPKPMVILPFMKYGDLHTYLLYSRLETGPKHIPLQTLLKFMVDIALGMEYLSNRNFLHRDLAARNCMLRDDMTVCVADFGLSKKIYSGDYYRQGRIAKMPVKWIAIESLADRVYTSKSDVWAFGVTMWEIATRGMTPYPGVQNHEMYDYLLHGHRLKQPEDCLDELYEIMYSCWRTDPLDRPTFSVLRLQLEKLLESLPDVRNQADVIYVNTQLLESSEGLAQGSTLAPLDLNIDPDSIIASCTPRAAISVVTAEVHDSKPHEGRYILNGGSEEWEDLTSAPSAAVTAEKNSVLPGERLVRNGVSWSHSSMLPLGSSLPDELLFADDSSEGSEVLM
QUANTITY_MEASURED: EC50 (nM)

O=c1c2cc(CN3CCC4(CC3)COC4)ccc2c2cnc(NC3CC(F)(F)C3)nc2n1[C@H]1CC[C@H](O)CC1 [Compound 210]; 85.6

[a] CCCCNc1ncc2c3ccc(CN4CCNCC4)cc3c(=O)n([C@H]3CC[C@H](O)CC3)c2n1 [Compound 154]
[b] O=c1c2cc(N3CCn4ncnc4C3)ccc2c2cnc(NCC3CC3)nc2n1[C@H]1CC[C@H](O)CC1 [Compound 164]
Select one. Lower EC50: a or b Indicate which entry you chose by stating its label.
a
(a: 66 nM, b: 296 nM)
